Assay: Plasma protein binding by equilibrium dialysis, rat
Type: in vitro ADME
Settings: both sexes, SD
Please provide measured recovery for the entries that follow.
Express your answer as a number followed by its unit.

Can you share its recovery? I mean this compound: CC(=O)N1CCN(c2ccc(OCC3COC(Cn4ccnc4)(c4ccc(Cl)cc4Cl)O3)cc2)CC1 (centres unmarked)
103%

Request: COc1cc(Nc2c(C#N)cnc3cc(OCCCN4CCN(C)CC4)c(OC)cc23)c(Cl)cc1Cl
91.1%

====

Experiment: Metabolic stability in human liver microsomes
Format: in vitro ADME
Conditions: both sexes, pooled
METRIC_NAME: half-life at 1 h (min)
Give just the numeric value; min need not be written.

Can you share its half-life at 1 h? I mean this molecule: COc1cc(Nc2c(C#N)cnc3cc(OCCCN4CCN(C)CC4)c(OC)cc23)c(Cl)cc1Cl
4.8

====

Assay: Plasma protein binding by equilibrium dialysis, human
Format: in vitro ADME
Settings: both sexes
METRIC_NAME: remaining at 6 h, 5 μM (%)
Give just the numeric value; % need not be written.

Can you share its remaining at 6 h, 5 μM? I mean this molecule: CC(=O)N1CCN(c2ccc(OCC3COC(Cn4ccnc4)(c4ccc(Cl)cc4Cl)O3)cc2)CC1 (stereo not shown)
102

====

Experiment: Metabolic stability in human hepatocytes
Format: in vitro ADME
Settings: both sexes
METRIC_NAME: half-life at 2 h (min)
Give just the numeric value; min need not be written.

Can you share its half-life at 2 h? I mean this compound: COc1cc(Nc2c(C#N)cnc3cc(OCCCN4CCN(C)CC4)c(OC)cc23)c(Cl)cc1Cl
54.9

====

Experiment: Metabolic stability in rat liver microsomes
Type: in vitro ADME
Conditions: male, SD, pooled, read-out: LMClint
METRIC_NAME: microsomal CLint at 1 h (µL/min/mg)
Give just the numeric value; µL/min/mg need not be written.

Can you share its microsomal CLint at 1 h? I mean this molecule: COc1cc(Nc2c(C#N)cnc3cc(OCCCN4CCN(C)CC4)c(OC)cc23)c(Cl)cc1Cl
264

====

Assay: Plasma protein binding by equilibrium dialysis, mouse
Type: in vitro ADME
Details: both sexes, CD-1, 5 μM, equilibrium dialysis, read-out: fu, plasma % / %Unbound
METRIC_NAME: fraction unbound at 5 μM
// return just the number, without any unit appended

Can you share its fraction unbound at 5 μM? I mean this molecule: CC(=O)N1CCN(c2ccc(OCC3COC(Cn4ccnc4)(c4ccc(Cl)cc4Cl)O3)cc2)CC1 (stereo not shown)
0.0058

====

Test system: KU812 cells
Assay: Cell viability assay (CellTiter-Glo), KU812
Type: cell-based, human
Conditions: read-out: IC50 (72 h), KU812 Cell Line, mean ± SEM, n = 3, unadjusted for FBS
METRIC_NAME: IC50 (nM)
Give just the numeric value; nM need not be written.

Can you share its IC50? I mean this molecule: N.N.[Cl][Pt][Cl] [Cisplatin, cisplatin]
1500

====

Target: CYP2D6 (Homo sapiens, UniProt P10635)
Sequence (P10635 whole entry): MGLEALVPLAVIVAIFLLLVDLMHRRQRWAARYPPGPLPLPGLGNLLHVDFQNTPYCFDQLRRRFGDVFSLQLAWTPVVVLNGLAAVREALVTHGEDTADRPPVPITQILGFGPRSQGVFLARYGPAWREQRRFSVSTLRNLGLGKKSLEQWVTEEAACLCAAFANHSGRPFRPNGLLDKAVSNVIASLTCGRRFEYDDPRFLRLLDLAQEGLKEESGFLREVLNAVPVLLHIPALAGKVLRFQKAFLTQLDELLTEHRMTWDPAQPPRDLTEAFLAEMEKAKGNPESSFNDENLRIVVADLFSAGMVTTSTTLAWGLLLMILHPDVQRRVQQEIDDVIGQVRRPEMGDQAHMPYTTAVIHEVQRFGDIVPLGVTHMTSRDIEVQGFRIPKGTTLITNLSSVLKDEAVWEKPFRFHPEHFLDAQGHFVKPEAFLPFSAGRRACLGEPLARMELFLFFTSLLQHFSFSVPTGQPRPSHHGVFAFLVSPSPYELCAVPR
Assay: in vitro
Conditions: both, microsomes, CYP2D6 Inhibition percentage(%) at Top conc.
METRIC_NAME: inhibition at 20 min

Can you share its inhibition at 20 min? I mean this compound: Fc1ccc([C@@H]2CCNC[C@H]2COc2ccc3c(c2)OCO3)cc1 [Paroxetine]
91.7%

====

Test: Plasma protein binding by equilibrium dialysis, human
Type: in vitro ADME
Conditions: both sexes
METRIC_NAME: recovery (%)
Give just the numeric value; % need not be written.

Can you share its recovery? I mean this molecule: COc1cc(Nc2c(C#N)cnc3cc(OCCCN4CCN(C)CC4)c(OC)cc23)c(Cl)cc1Cl
94

Request: CC(=O)N1CCN(c2ccc(OCC3COC(Cn4ccnc4)(c4ccc(Cl)cc4Cl)O3)cc2)CC1 (centres unmarked)
98.6

====

Please provide measured efflux ratio at 2 h, 5 μM for the entries that follow.
Test: in vitro
Settings: human, Caco-2
// return just the number, without any unit appended

Can you share its efflux ratio at 2 h, 5 μM? I mean this molecule: COCCc1ccc(OCC(O)CNC(C)C)cc1 (centres unmarked)
0.95

Request: C[C@H]1O[C@@H](O[C@H]2[C@@H](O)C[C@H](O[C@H]3[C@@H](O)C[C@H](O[C@H]4CC[C@@]5(C)[C@H](CC[C@@H]6[C@@H]5C[C@@H](O)[C@]5(C)[C@@H](C7=CC(=O)OC7)CC[C@]65O)C4)O[C@@H]3C)O[C@@H]2C)C[C@H](O)[C@@H]1O
45.6

====

Please provide measured pKa for the entries that follow.
Assay: pKa determination by pH-metric method
Format: physicochemical
Conditions: pH-metric method, range -12; read-out: pKa1

Can you share its pKa? I mean this compound: COc1ccccc1OCCCN1CCN(C)CC1 [compound 17]
4.2

Request: COc1ccccc1OCCON1CCN(C)CC1 [compound 18]
7.4

====

Assay: Plasma protein binding by equilibrium dialysis, mouse
Format: in vitro ADME
Conditions: both sexes, CD-1
METRIC_NAME: remaining at 6 h, 5 μM (%)
Give just the numeric value; % need not be written.

Can you share its remaining at 6 h, 5 μM? I mean this molecule: CC(=O)N1CCN(c2ccc(OCC3COC(Cn4ccnc4)(c4ccc(Cl)cc4Cl)O3)cc2)CC1 (stereo not shown)
96.3

====

Experiment: Plasma protein binding by equilibrium dialysis, mouse
Format: in vitro ADME
Details: both sexes, CD-1
METRIC_NAME: recovery (%)
Give just the numeric value; % need not be written.

Can you share its recovery? I mean this compound: CC(=O)N1CCN(c2ccc(OCC3COC(Cn4ccnc4)(c4ccc(Cl)cc4Cl)O3)cc2)CC1 (stereo not shown) [Ketoconazole]
96.8

====

Experiment: Plasma protein binding by equilibrium dialysis, rat
Format: in vitro ADME
Conditions: both sexes, SD
METRIC_NAME: remaining at 6 h, 5 μM (%)
Give just the numeric value; % need not be written.

Can you share its remaining at 6 h, 5 μM? I mean this compound: COc1cc(Nc2c(C#N)cnc3cc(OCCCN4CCN(C)CC4)c(OC)cc23)c(Cl)cc1Cl [bosutinib]
90.7

====

Please provide measured logD at 2 h for the entries that follow.
Assay: logD7.4 by shake-flask method
Format: physicochemical
Conditions: pH 7.4
// return just the number, without any unit appended

Can you share its logD at 2 h? I mean this compound: COc1ccccc1OCCON1CCN(C)CC1
1

Request: COc1ccccc1OCCCN1CCN(C)CC1
0.9

Request: COc1cc(Nc2c(C#N)cnc3cc(OCCCN4CCN(C)CC4)c(OC)cc23)c(Cl)cc1Cl
3.1

====

Test: Plasma protein binding by equilibrium dialysis, human
Assay type: in vitro ADME
Conditions: both sexes, read-out: %Bound (converted)
METRIC_NAME: fraction unbound at 5 μM
// return just the number, without any unit appended

Can you share its fraction unbound at 5 μM? I mean this compound: COc1cc(Nc2c(C#N)cnc3cc(OCCCN4CCN(C)CC4)c(OC)cc23)c(Cl)cc1Cl
0.0453

Request: CC(=O)N1CCN(c2ccc(OCC3COC(Cn4ccnc4)(c4ccc(Cl)cc4Cl)O3)cc2)CC1 (centres unmarked)
0.0082

====

Assay: Metabolic stability in human hepatocytes
Format: in vitro ADME
Settings: both sexes
METRIC_NAME: hepatocyte CLint at 2 h (µL/min/1e6 cells)
Give just the numeric value; µL/min/1e6 cells need not be written.

Can you share its hepatocyte CLint at 2 h? I mean this compound: COc1cc(Nc2c(C#N)cnc3cc(OCCCN4CCN(C)CC4)c(OC)cc23)c(Cl)cc1Cl
25.3

====

Please provide measured efflux ratio at 2 h, 1 μM for the entries that follow.
Test system: P-gp (MDR1)
Experiment: in vitro
Conditions: dog, MDCK-MDR1
// return just the number, without any unit appended

Can you share its efflux ratio at 2 h, 1 μM? I mean this molecule: C[C@H]1O[C@@H](O[C@H]2[C@@H](O)C[C@H](O[C@H]3[C@@H](O)C[C@H](O[C@H]4CC[C@@]5(C)[C@H](CC[C@@H]6[C@@H]5C[C@@H](O)[C@]5(C)[C@@H](C7=CC(=O)OC7)CC[C@]65O)C4)O[C@@H]3C)O[C@@H]2C)C[C@H](O)[C@@H]1O
38.6

Request: COCCc1ccc(OCC(O)CNC(C)C)cc1 (centres unmarked)
1.11

====

Assay: in vitro
Settings: human, Caco-2
METRIC_NAME: Papp A→B at 2 h, 5 μM (×10⁻⁶ cm/s)
Give just the numeric value; ×10⁻⁶ cm/s need not be written.

Can you share its Papp A→B at 2 h, 5 μM? I mean this molecule: C[C@H]1O[C@@H](O[C@H]2[C@@H](O)C[C@H](O[C@H]3[C@@H](O)C[C@H](O[C@H]4CC[C@@]5(C)[C@H](CC[C@@H]6[C@@H]5C[C@@H](O)[C@]5(C)[C@@H](C7=CC(=O)OC7)CC[C@]65O)C4)O[C@@H]3C)O[C@@H]2C)C[C@H](O)[C@@H]1O
0.34

Request: COCCc1ccc(OCC(O)CNC(C)C)cc1 (centres unmarked)
23.1
